Molecular target: UniProt:P54760
Sequence (P54760 16-987): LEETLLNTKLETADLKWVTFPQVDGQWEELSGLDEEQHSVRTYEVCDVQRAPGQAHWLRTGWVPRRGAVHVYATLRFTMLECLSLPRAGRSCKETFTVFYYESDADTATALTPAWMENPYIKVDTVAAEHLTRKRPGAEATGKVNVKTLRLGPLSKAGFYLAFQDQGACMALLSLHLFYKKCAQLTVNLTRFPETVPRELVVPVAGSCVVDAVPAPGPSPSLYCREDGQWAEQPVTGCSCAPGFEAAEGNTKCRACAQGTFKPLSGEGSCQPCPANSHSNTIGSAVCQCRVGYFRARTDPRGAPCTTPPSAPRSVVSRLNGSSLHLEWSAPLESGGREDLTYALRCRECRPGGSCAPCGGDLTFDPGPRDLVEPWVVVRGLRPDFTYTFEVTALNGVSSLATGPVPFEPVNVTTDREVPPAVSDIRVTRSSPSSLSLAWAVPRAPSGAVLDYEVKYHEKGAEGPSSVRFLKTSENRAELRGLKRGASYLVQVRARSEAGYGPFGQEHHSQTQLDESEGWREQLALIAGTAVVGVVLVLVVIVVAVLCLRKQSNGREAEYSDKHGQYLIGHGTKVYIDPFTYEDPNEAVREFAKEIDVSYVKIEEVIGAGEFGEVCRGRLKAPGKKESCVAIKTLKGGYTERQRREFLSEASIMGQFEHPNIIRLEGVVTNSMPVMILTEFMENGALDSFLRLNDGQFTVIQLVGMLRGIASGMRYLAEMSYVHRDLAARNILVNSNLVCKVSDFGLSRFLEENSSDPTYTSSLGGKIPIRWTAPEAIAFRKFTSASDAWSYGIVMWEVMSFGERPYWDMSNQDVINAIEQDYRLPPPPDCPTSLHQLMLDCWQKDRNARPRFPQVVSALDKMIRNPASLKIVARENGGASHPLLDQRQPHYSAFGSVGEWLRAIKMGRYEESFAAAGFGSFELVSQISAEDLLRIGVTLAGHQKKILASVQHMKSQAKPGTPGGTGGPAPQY
Assay: Eph receptor kinase activity assay (radiometric), EphB4
Assay type: biochemical
Conditions: 300 nM compound; read-out: EphB4 % act 300 nM
OBSERVATION_TYPE: remaining activity at 0.3 µM (%)

1) O=C(Nc1ccccc1Cl)c1cnc2ccc(-c3cccnc3)cn12 [compound 113] | 4
2) O=C(Nc1ccccc1Cl)c1cnc2ccc(C3CCNCC3)cn12 [A-38] | 3
3) O=C(Nc1ccccc1Cl)c1cnc2ccc(-c3ccncc3)cn12 [compound 114] | 4
4) NCc1cccc(-c2ccc3ncc(C(=O)Nc4ccccc4Cl)n3c2)c1 [compound 108] | 2
5) NC(=O)c1cccc(-c2ccc3ncc(C(=O)Nc4ccccc4Cl)n3c2)c1 [compound 110] | 3
6) O=C(Nc1ccccc1Cl)c1cnc2ccc(-c3ncccn3)cn12 [compound 115] | 9

1 = O=C(Nc1ccccc1Cl)c1cnc2ccc(-c3ccccn3)cn12 [compound 112]
2 = NCc1ccc(-c2ccc3ncc(C(=O)Nc4ccccc4Cl)n3c2)cc1 [compound 109]
Which of the two items, 1 and 2 , has the greater recorded remaining activity at 0.3 µM? Write the label of whichever entry you select.
2
(2: 3%, 1: 2%)

* * *

Biological target: EphA4 (Homo sapiens)
Assay: Eph receptor kinase activity assay (radiometric), EphA4
Type: biochemical
Conditions: 100 nM compound; read-out: EphA4 % act 100 nM
OBSERVATION_TYPE: remaining activity at 0.1 µM (%)

Solved entries:
1. NCc1ccc(-c2ccc3ncc(C(=O)Nc4ccccc4Cl)n3c2)cc1 | 8
2. COc1cccc(NC(=O)c2cnc3ccc(C4CCNCC4)cn23)c1Cl | 89.8

I = O=C(Nc1ccccc1Cl)c1cnc2ccc(-c3ccncc3)cn12
II = COc1cccc(-c2ccc3ncc(C(=O)Nc4ccccc4Cl)n3c2)c1
For the pair I and II , which entry has the numerically smaller recorded remaining activity at 0.1 µM? Write the label of whichever entry you select.
I

1 = NC(=O)c1cccc(-c2ccc3ncc(C(=O)Nc4ccccc4Cl)n3c2)c1
2 = O=C(Nc1ccccc1Cl)c1cnc2ccc(-c3ccccc3O)cn12
For the pair 1 and 2 , which entry has the numerically smaller recorded remaining activity at 0.1 µM? Write the label of whichever entry you select.
1

* * *

Biological target: EphB4 (Homo sapiens, UniProt P54760)
Sequence (P54760 16-987): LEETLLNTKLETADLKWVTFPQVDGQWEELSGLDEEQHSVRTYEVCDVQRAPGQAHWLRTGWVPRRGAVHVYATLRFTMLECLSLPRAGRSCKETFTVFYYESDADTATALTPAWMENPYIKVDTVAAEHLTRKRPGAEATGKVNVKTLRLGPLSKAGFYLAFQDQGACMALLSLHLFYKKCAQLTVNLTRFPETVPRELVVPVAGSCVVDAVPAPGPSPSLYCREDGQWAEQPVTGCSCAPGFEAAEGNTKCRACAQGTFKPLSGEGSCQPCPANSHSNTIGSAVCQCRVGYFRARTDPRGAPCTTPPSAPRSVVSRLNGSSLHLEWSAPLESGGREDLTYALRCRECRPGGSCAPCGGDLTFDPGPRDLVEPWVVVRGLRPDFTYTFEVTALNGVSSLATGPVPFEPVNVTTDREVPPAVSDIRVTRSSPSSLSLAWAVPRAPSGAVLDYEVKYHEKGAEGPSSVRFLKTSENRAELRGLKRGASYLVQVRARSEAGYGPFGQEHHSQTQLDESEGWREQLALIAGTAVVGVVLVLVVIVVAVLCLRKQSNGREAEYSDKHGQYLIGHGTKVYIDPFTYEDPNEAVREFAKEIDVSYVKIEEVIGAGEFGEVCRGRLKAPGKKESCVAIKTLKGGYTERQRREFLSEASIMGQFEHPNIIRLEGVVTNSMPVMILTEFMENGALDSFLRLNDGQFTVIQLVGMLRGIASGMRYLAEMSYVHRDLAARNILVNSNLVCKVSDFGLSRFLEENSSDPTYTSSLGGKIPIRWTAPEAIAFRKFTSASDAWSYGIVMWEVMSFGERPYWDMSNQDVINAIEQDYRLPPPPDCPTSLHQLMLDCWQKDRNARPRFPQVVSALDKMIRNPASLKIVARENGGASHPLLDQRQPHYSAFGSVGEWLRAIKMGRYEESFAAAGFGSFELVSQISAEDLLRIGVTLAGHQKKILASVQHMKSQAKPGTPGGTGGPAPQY
Experiment: Eph receptor kinase activity assay (radiometric), EphB4
Type: biochemical
Conditions: 10 nM compound; read-out: EphB4 % act 10 nM
OBSERVATION_TYPE: remaining activity at 0.01 µM (%)

1. Cc1cccc(-c2ccc3ncc(C(=O)Nc4ccccc4Cl)n3c2)c1 | 103
2. COc1cccc(NC(=O)c2cnc3ccc(C4CCNCC4)cn23)c1Cl | 104
3. NCc1ccc(-c2ccc3ncc(C(=O)Nc4ccccc4Cl)n3c2)cc1 | 22
4. Cc1ccc(-c2ccc3ncc(C(=O)Nc4ccccc4Cl)n3c2)cc1 | 93.1
5. O=C(Nc1ccccc1Cl)c1cnc2ccc(-c3ccccc3O)cn12 | 96.5
6. NCc1cccc(-c2ccc3ncc(C(=O)Nc4ccccc4Cl)n3c2)c1 | 62

a = O=C(Nc1ccccc1Cl)c1cnc2ccc(-c3ccccn3)cn12
b = COc1ccccc1-c1ccc2ncc(C(=O)Nc3ccccc3Cl)n2c1
For the pair a and b , which entry has the numerically smaller recorded remaining activity at 0.01 µM? Write the label of whichever entry you select.
a

* * *

Biological target: EphA4 (Homo sapiens, UniProt P54764)
Sequence (P54764 20-986): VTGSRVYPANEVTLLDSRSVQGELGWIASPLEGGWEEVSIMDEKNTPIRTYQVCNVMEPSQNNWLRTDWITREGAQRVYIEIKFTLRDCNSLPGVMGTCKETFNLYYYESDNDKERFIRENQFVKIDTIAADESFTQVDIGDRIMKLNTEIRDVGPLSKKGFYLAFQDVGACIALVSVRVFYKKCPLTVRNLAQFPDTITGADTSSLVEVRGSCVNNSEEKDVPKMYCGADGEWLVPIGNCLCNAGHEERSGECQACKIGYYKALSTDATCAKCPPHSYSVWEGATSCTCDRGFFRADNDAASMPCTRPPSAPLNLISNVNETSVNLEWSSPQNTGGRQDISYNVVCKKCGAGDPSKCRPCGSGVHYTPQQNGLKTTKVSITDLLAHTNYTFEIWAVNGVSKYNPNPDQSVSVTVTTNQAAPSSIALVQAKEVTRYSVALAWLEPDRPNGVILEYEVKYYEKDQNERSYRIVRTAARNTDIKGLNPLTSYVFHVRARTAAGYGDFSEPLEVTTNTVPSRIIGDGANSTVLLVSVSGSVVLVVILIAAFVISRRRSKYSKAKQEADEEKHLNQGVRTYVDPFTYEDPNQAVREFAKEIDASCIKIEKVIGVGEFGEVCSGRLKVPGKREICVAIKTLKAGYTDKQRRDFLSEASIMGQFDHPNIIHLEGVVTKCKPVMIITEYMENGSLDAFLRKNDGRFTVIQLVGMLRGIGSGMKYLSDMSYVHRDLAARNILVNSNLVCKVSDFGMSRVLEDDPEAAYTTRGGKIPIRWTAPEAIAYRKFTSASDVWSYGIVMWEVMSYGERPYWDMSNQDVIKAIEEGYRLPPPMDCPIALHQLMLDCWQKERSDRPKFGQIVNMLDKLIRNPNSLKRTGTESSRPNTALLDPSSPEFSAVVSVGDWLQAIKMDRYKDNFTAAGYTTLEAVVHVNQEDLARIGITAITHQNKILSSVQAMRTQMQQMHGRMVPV
Test: Eph receptor kinase activity assay (radiometric), EphA4
Format: biochemical
Settings: 100 nM compound; read-out: EphA4 % act 100 nM
OBSERVATION_TYPE: remaining activity at 0.1 µM (%)

1. COc1ccccc1-c1ccc2ncc(C(=O)Nc3ccccc3Cl)n2c1 [compound 101] | 74.5

1 = Cc1cccc(-c2ccc3ncc(C(=O)Nc4ccccc4Cl)n3c2)c1 [compound 105]
2 = Cc1ccccc1-c1ccc2ncc(C(=O)Nc3ccccc3Cl)n2c1 [compound 106]
Which of the two items, 1 and 2 , has the greater recorded remaining activity at 0.1 µM? Write the label of whichever entry you select.
2

* * *

Molecular target: UniProt P54760
Test: Eph receptor kinase activity assay (radiometric), EphB4
Format: biochemical
Conditions: 100 nM compound; read-out: EphB4 % act 100 nM
OBSERVATION_TYPE: remaining activity at 0.1 µM (%)

1) O=C(Nc1ccccc1Cl)c1cnc2ccc(C3CCNCC3)cn12 | 9
2) O=C(Nc1ccccc1Cl)c1cnc2ccc(-c3ccccc3O)cn12 | 103
3) COc1cccc(-c2ccc3ncc(C(=O)Nc4ccccc4Cl)n3c2)c1 | 132
4) O=C(Nc1ccccc1Cl)c1cnc2ccc(-c3ccncc3)cn12 | 4
5) COc1ccc(Cl)c(NC(=O)c2cnc3ccc(C4CCNCC4)cn23)c1 | 66.5
6) Cc1ccccc1-c1ccc2ncc(C(=O)Nc3ccccc3Cl)n2c1 | 110
7) COc1cccc(NC(=O)c2cnc3ccc(C4CCNCC4)cn23)c1Cl | 86.7

P = Cc1ccc(-c2ccc3ncc(C(=O)Nc4ccccc4Cl)n3c2)cc1
Q = NCc1cccc(-c2ccc3ncc(C(=O)Nc4ccccc4Cl)n3c2)c1
For the pair P and Q , which entry has the numerically smaller recorded remaining activity at 0.1 µM? Write the label of whichever entry you select.
Q
(Q: 12%, P: 98.4%)
